# experimental target: Human CGRP receptors (consisting of CRLR and RAMP1) (Homo sapiens (Human), UniProt O60894+Q16602)
# Sequence (Q16602 23-461): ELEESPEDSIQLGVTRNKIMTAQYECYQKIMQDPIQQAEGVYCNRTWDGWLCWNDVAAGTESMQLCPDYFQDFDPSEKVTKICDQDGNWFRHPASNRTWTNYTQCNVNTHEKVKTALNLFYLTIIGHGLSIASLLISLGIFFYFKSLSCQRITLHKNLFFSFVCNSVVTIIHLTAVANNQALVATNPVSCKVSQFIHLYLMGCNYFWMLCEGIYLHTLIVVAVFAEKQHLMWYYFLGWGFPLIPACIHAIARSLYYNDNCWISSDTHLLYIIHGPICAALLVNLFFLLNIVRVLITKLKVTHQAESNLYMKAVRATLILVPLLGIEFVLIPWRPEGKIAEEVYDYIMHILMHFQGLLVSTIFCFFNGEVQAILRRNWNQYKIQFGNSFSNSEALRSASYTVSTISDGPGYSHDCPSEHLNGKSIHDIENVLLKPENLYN
# Sequence (O60894 27-148): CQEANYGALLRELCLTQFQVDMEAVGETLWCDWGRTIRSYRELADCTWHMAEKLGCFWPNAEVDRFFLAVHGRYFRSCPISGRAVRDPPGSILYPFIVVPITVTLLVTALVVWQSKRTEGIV
# assay explanation: Radioligand binding assay (3H-telcagepant displacement)
# recorded conditions: Sf21 membranes, 0.5 nM 3H-telcagepant, Cheng-Prussoff
Recorded measurements of pKi average, one per entry

Here are 2 molecules together with their reported answers.
{"smiles structure": "O=C(N[C@@H](CC1CCNCC1)C(=O)N1CCN(c2ccncc2)CC1)[C@@H](Cc1cc(Br)c(O)c(Br)c1)NC(=O)N1CCC(n2c(=O)[nH]c3ncccc32)CC1", "measured result": 10.4}
{"smiles structure": "O=C(N[C@@H](CC1CCNCC1)C(=O)N1CCN(c2ccncc2)CC1)[C@@H](Cc1cc(Br)c(O)c(Br)c1)NC(=O)N1CCC(N2Cc3ccccc3NC2=O)CC1", "measured result": 10.1}

// switching to the query molecule
Q: What value of measured pKi average is listed for Cc1cc(C[C@@H](NC(=O)N2CCC3(CC2)OC(=O)Nc2ncccc23)C(=O)N[C@@H](CC2CCNCC2)C(=O)N2CCN(c3ccncc3)CC2)cc2cn[nH]c12 ?
Result: 10.5

This collection of values is drawn from patent US10300056B2.
